- TESTED SYSTEM: µ-opioid receptor (MOR), Human-ORPM1 (human, UniProt P35372 1-400)
- Sequence (P35372 whole entry): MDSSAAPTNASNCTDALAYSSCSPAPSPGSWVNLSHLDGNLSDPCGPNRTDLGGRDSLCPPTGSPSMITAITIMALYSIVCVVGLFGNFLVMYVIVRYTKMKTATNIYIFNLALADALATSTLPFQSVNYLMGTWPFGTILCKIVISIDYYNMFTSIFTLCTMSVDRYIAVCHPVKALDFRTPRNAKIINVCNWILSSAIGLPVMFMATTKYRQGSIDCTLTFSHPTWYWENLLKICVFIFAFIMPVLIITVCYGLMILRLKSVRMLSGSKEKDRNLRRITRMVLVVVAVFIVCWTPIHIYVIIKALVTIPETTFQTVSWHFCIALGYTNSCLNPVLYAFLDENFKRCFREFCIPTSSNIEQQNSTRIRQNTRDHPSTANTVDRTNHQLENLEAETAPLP
- EXPERIMENT: cell-based or functional assay
Square brackets hold non-standard residues; d marks the D form. Phe(2,6-Me2,4-CONH2) = Cc1cc(C(N)=O)cc(C)c1C[C@H](N)C(=O)O; Dmt = Cc1cc(O)cc(C)c1C[C@H](N)C(=O)O; Tic = O=C(O)[C@@H]1Cc2ccccc2CN1; β3hF = N[C@H](CC(=O)O)Cc1ccccc1; Sar = CNCC(=O)O
This section presents binders with their documented MOR EC50 values.

| BINDER | MOR EC50 |
| --- | --- |
| H-[Phe(2,6-Me2,4-CONH2)][Tic]G[β3hF][Sar]-NH2 (SMILES Cc1cc(C(N)=O)cc(C)c1C[C@H](N)C(=O)N1Cc2ccccc2C[C@H]1C(=O)NCC(=O)N[C@H](CC(=O)N(C)CC(N)=O)Cc1ccccc1) [H-Phe(DMC)-Tic-G-bhF-Sar-NH2] | ≤ 200 nM |
| H-[Dmt][dA]A[β3hF][Sar]-NH2 (SMILES Cc1cc(O)cc(C)c1C[C@H](N)C(=O)N[C@H](C)C(=O)N[C@@H](C)C(=O)N[C@H](CC(=O)N(C)CC(N)=O)Cc1ccccc1) [H-DMT-a-Ala-bhF-Sar-NH2] | ≤ 1 nM |
| H-[Dmt][dR]F[Sar]-NH2 (SMILES Cc1cc(O)cc(C)c1C[C@H](N)C(=O)N[C@H](CCCNC(=N)N)C(=O)N[C@@H](Cc1ccccc1)C(=O)N(C)CC(N)=O) [H-DMT-r-F-Sar-NH2] | ≤ 1 nM |
| H-[Dmt]GG[β3hF][Sar]-NH2 (SMILES Cc1cc(O)cc(C)c1C[C@H](N)C(=O)NCC(=O)NCC(=O)N[C@H](CC(=O)N(C)CC(N)=O)Cc1ccccc1) [H-DMT-G-G-bhF-Sar-NH2] | ≤ 1 nM |
